Target: recombinant human plasminogen activator inhibitor-1 (Homo sapiens, UniProt P05121)
Construct: purchased Molecular Innovations, Royal Oak, Mich
Sequence (P05121 24-402): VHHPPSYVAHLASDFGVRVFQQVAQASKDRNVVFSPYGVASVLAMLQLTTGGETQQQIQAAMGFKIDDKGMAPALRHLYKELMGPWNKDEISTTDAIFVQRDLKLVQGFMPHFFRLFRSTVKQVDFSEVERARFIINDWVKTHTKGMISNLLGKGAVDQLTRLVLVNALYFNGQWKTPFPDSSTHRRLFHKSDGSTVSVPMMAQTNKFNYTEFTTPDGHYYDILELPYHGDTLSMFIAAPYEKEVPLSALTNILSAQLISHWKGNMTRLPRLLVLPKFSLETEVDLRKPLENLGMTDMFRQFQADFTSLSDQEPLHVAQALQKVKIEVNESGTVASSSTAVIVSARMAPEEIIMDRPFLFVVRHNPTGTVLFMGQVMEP
Experiment: Primary screen for the PAI-1 inhibition (residual tPA activity, Spectrozyme-tPA chromogenic substrate)
Format: biochemical
Conditions: test compound 100 uM (cell annotated "(100 uM)" instead of 25 uM); pH 6.6 buffer, 140 nM PAI-1, 70 nM tPA
# label = TRUE if Inhibition (%) (100 uM) >= 30% else FALSE

Challenge: Hi, just wondering whether C=CCOc1ccc2c(c1)c(C(=O)C(=O)O)cn2CCc1cccc(C(F)(F)F)c1 shows Inhibition (%) (100 uM) of 30% or higher.
Response given: FALSE

Challenge: Could you verify whether the entry O=C(O)C(=O)c1cn(-c2ccc(OCc3ccc(-c4csnn4)cc3)cc2)c2ccccc12 shows Inhibition (%) (100 uM) of no less than 30%?
Response given: TRUE

Challenge: # bool: Inhibition (%) (100 uM) of C=CCOc1ccc2c(c1)c(C(=O)C(=O)O)cn2CCc1ccc(OC)cc1 >= 30%
Response given: FALSE

Challenge: Check the entry N#Cc1ccc(COc2ccc(-n3cc(C(=O)C(=O)O)c4cc(F)ccc43)cc2)cc1 : does Inhibition (%) (100 uM) equal or exceed 30%?
Response given: TRUE

Challenge: Tell me whether Inhibition (%) (100 uM) is at least 30% here: C=CCOc1ccc2c(c1)c(C(=O)C(=O)O)cn2CCc1ccccc1
Response given: FALSE

Challenge: Please check the record Cc1ccc2c(c1)c(C(=O)C(=O)O)cn2-c1ccc(OCc2ccc(Cl)cc2Cl)cc1 and state if its Inhibition (%) (100 uM) is at or above 30%.
Response given: TRUE

Challenge: Hi team, for C=CCOc1ccc2c(c1)c(C(=O)C(=O)O)cn2CC1CCC1 , is the recorded Inhibition (%) (100 uM) at or above 30%?
Response given: FALSE

Challenge: Does the reported Inhibition (%) (100 uM) for C=CCOc1ccc2c(c1)c(C(=O)C(=O)O)cn2Cc1ccc2c(c1)OCO2 fall at or above the 30% mark?
Response given: FALSE

====

Consider the following compounds; for each one, report its inhibition at 25 µM.
Target: recombinant human plasminogen activator inhibitor-1 (Homo sapiens, UniProt P05121)
Construct: purchased Molecular Innovations, Royal Oak, Mich
Test: Primary screen for the PAI-1 inhibition (residual tPA activity, Spectrozyme-tPA chromogenic substrate)
Format: biochemical
Details: test compound 25 uM; pH 6.6 buffer, 140 nM PAI-1, 70 nM tPA
Experimental: Primary Screen for the PAI-1 Inhibition Test compounds were dissolved in DMSO at a final concentration of 10 mM, then diluted 100× in physiologic buffer. […] Following the second incubation, Spectrozyme-tPA (American Diagnostica, Greenwich, Conn.), a chromogenic substrate for tPA, was added and absorbance read at 405 nm at 0 and 60 minutes. […]
Param answer (str): number followed by unit.

Challenge: Entry N#Cc1ccc(COc2ccc(-n3cc(C(=O)C(=O)O)c4ccccc43)cc2)cc1 has what inhibition at 25 µM?
Response given: 23%

Challenge: Record request: inhibition at 25 µM value, item COc1cc(COc2ccc(-n3cc(C(=O)C(=O)O)c4cc(F)ccc43)cc2)cc(OC)c1
Response given: 26%

Challenge: Given O=C(O)C(=O)c1cn(Cc2ccccc2)c2ccc(OCc3ccccc3)cc12 , state its recorded inhibition at 25 µM.
Response given: 13%

Challenge: Quick one: inhibition at 25 µM for N#Cc1ccc(COc2cccc(-n3cc(C(=O)C(=O)O)c4cc(Cl)ccc43)c2)cc1 ?
Response given: 44%

Challenge: Fill blank: measured inhibition at 25 µM of the compound O=C(O)C(=O)c1cn(-c2ccc(OCc3c(F)c(F)c(C(F)(F)F)c(F)c3F)cc2)c2ccccc12 is ____.
Response given: 66%

Challenge: For the compound C=CCOc1ccc2c(c1)c(C(=O)C(=O)O)cn2CCc1ccc(Br)cc1 , what inhibition at 25 µM is on record?
Response given: 29%

Challenge: Which inhibition at 25 µM value is on record for O=C(O)C(=O)c1cn(Cc2ccc(F)cc2)c2ccc(OCCc3ccc(F)cc3)cc12 ?
Response given: 6%

Challenge: Sample O=C(O)C(=O)c1cn(-c2ccc(OC(F)(F)F)cc2)c2ccc(-c3ccc(OC(F)(F)F)cc3)cc12 — what was its inhibition at 25 µM?
Response given: 56%

Challenge: Which measured inhibition at 25 µM value corresponds to O=C(O)C(=O)c1cn(-c2cccc(OCc3c(F)c(F)c(C(F)(F)F)c(F)c3F)c2)c2ccc(Cl)cc12 ?
Response given: 75%

Challenge: Fill in: inhibition at 25 µM of Cc1ccc2c(c1)c(C(=O)C(=O)O)cn2-c1ccc(OCc2ccc(C(C)(C)C)cc2)cc1 is ___
Response given: 62%

Challenge: Suppose we examine the compound COc1cccc(COc2ccc(-n3cc(C(=O)C(=O)O)c4ccccc43)cc2)c1 ; what inhibition at 25 µM value has been reported?
Response given: 43%

Challenge: Query: inhibition at 25 µM; subject: O=C(O)C(=O)c1cn(-c2cccc(OCc3ccc(-c4csnn4)cc3)c2)c2ccc(Cl)cc12
Response given: 45%

Challenge: Need inhibition at 25 µM, item C=CCOc1ccc2c(c1)c(C(=O)C(=O)O)cn2CCc1cccc2ccccc12
Response given: 12%

Challenge: Value lookup for inhibition at 25 µM; key = O=C(O)C(=O)c1cn(-c2ccc(OCc3cc(Cl)nc(Cl)c3)cc2)c2ccccc12
Response given: 39%

Challenge: Given the entry O=C(O)C(=O)c1cn(Cc2ccccc2)c2ccc(Oc3ccc(C(F)(F)F)cc3Cl)cc12 , report its measured inhibition at 25 µM.
Response given: 52%

Challenge: // returns reported inhibition at 25 µM for input Cc1ccc2c(c1)c(C(=O)C(=O)O)cn2-c1ccc(OCc2cc(Cl)nc(Cl)c2)cc1
Response given: 5%

Challenge: Returns the measured inhibition at 25 µM for the input compound. Input: O=C(O)C(=O)c1cn(-c2cccc(OCc3cc(Cl)nc(Cl)c3)c2)c2ccc(Cl)cc12
Response given: 46%

Challenge: Given the compound Cc1ccc2c(c1)c(C(=O)C(=O)O)cn2-c1ccc(OCc2cccc(Cl)c2)cc1 , what is its reported inhibition at 25 µM?
Response given: 54%

Challenge: Please look up its inhibition at 25 µM: COc1cc(COc2cccc(-n3cc(C(=O)C(=O)O)c4cc(Cl)ccc43)c2)cc(OC)c1
Response given: 1%

====

pIC50: −log10 of the molar value.
recorded.endpoint: pIC50

Challenge: Request body: readout pIC50, system human PAI-1 (Homo sapiens, UniProt P05121), query O=C(O)C(=O)c1cn(-c2ccc(OC(F)(F)F)cc2)c2ccc(-c3ccc(OC(F)(F)F)cc3)cc12 . Return the value.
Response given: < 4.60
